- Assayed target: T1, AP8-AA
- T1 chain: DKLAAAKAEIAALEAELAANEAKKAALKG
- Experiment description: two-hybrid library CCmax;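 note: natural log of median RNA to DNA barcode read ratio; higher means stronger binding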
- Assay context: mean of both orientations
Please provide measured interaction score for the entries that follow.
One number for each entry.

Below: 10 binders and their reported interaction score.
Binder | interaction score
DEIAALEAKNAALKAELAAIEAKIAAKKG [AP5-AA] | -1.08
DEEAALEAKAAALKAELAANEAKLAAAKG [AP6-AA] | -1.59
DKLAAIKAKLAANKAKKAALKAKAAALKG [AP2-AA] | -1.71
KELQAIEKQLAQLQWKAQARKKKLAQLKK [4H_APH] | -1.48
DKNAALKAEIAALEAENAALEAKIAALKG [4H3606-AA] | -1.43
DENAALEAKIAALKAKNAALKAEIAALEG [4H1401-AA] | -0.198
DELAAEEAKNAALKAKLAAAKAEIAALEG [AP7-AA] | -2.81
DELAAIEAEIAALEAKKAALKAKNAALKG [AP3-AA] | -1.48
ASIRRLEQEVNQERSRMAYLQTLLAKIEQ [4H_BCR] | -1.28
DELAAIEAELAAEEAENAALEAEAAALEG [AP1-AA] | -1.34

Then this binder:
Fill in the blank: the reported interaction score of DELAANEAELAAEEAKLAAAKAKAAALKG [AP4-AA] is ____.
-1.25
